These measurements were taken from patent US20230416239A1.

# SYSTEM: TNFa/TNFRI interaction (Homo sapiens)
# Sequence (P01375 77-233 limits assumed): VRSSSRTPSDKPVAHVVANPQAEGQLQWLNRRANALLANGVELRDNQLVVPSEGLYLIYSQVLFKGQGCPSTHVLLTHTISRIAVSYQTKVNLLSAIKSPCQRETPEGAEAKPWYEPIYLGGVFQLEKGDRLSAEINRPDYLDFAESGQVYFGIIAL
# PROTOCOL: TNFa/TNFRI interaction displacement test;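 note: SPD304 reference at 20 µM final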
# Type: binding
# MEASUREMENT CONTEXT: Compound EC50 minus SPD304 EC50
# Experimental: Microtiter plates (96 wells) are covered with 100 μl per well of human TNFRI, at a concentration of 100 ng/ml, then incubated overnight at 4° C. […] After three washes, 100 μl of biotinylated anti-cytokine secondary antibody are added to each well and incubated for 2 h at 37° C. […] The plates are then read with a spectrophotometer at 450 nm, measuring the optical density (OD) for each well.
VALUE KIND: Displacement EC50 TNFa in presence of compound: Difference

# get_value(readout='Displacement EC50 TNFa in presence of compound: Difference', item= `O=S(=O)(c1ccccc1)n1cc(CN(CCCNC2CCCCC2)Cc2cccnc2)c2ccccc21` )
7.8 ng/mL

###

# SYSTEM: IL-4 (Homo sapiens)
# Sequence (P05112 25-153): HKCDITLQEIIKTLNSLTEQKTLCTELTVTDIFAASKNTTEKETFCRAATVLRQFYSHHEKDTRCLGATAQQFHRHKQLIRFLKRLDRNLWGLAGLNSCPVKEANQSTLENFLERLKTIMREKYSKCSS
IC50 under 5 µM gets true (1), anything at or over 5 µM gets false (0).

SMILES STR | QUALITATIVE LABEL
CN(CCCCN(Cc1cccnc1F)Cc1cn(S(=O)(=O)c2ccccc2)c2ccccc12)C1CCCCCCC1 | true (1)

Check if IC50 falls below 5 µM for `CN(CCOCCN(Cc1cccnc1F)Cc1cn(S(=O)(=O)c2ccccc2)c2ccccc12)C1CCCCC1` .
false (0)

Check if IC50 falls below 5 µM for `FC(F)(F)c1cccc(-n2cc(CN(CCCCCNC3CCCCC3)Cc3cccnc3)c3ccccc32)c1` .
true (1)

Check if IC50 falls below 5 µM for `O=S(=O)(c1ccccc1)n1cc(CN(CCCCNC2CCCCC2)Cc2ccncc2)c2ccccc21` .
true (1)

Check if IC50 falls below 5 µM for `O=S(=O)(c1ccccc1)n1cc(CN(CCCCNC2CCCCC2)Cc2cccnc2)c2ccccc21` .
false (0)

Check if IC50 falls below 5 µM for `CN1CCN(C(=O)NCCCCN(Cc2cccnc2F)Cc2cn(S(=O)(=O)c3ccccc3)c3ccccc23)CC1` .
false (0)

###

Each entry below carries its measured IC50, system: UniProt P01375.

Short answer please: IC50, UniProt P01375, entry CN(CCOCCN(Cc1cccnc1F)Cc1cn(S(=O)(=O)c2ccccc2)c2ccccc12)C1CCCCC1 [Compound 65]
5.9 µM

Short answer please: IC50, UniProt P01375, entry O=S(=O)(c1ccccc1)n1cc(CN(CCCCCNC2CCCCC2)Cc2ccncc2)c2ccccc21 [Compound 33]
4.6 µM

Short answer please: IC50, UniProt P01375, entry O=S(=O)(NCCCCN(Cc1cccnc1F)Cc1cn(S(=O)(=O)c2ccccc2)c2ccccc12)N1CCCCC1 [Compound 80]
> 50 µM

Short answer please: IC50, UniProt P01375, entry O=S(=O)(c1ccccc1)n1cc(CN(CCCCCNCc2ccnc(F)c2)Cc2ccnc(F)c2)c2ccccc21 [Compound 61]
29.8 µM

Short answer please: IC50, UniProt P01375, entry NCCN(Cc1cccnc1)Cc1cn(S(=O)(=O)c2ccccc2)c2ccccc12 [Compound 59]
35.8 µM

Short answer please: IC50, UniProt P01375, entry CCCN(CCOCCN(Cc1cccnc1F)Cc1cn(S(=O)(=O)c2ccccc2)c2ccccc12)C1CCCCC1 [Compound 97]
10.5 µM

Short answer please: IC50, UniProt P01375, entry CN(CCCCN(Cc1cccnc1F)Cc1cn(S(=O)(=O)c2ccccc2)c2ccccc12)C1CCC1 [Compound 70]
11.5 µM

Short answer please: IC50, UniProt P01375, entry O=S(=O)(c1ccccc1)n1cc(CN(Cc2cccc(F)n2)CC2CCCN(C3CCCCC3)C2)c2ccccc21 (centres unmarked) [Compound 41]
7 µM

Short answer please: IC50, UniProt P01375, entry CN(C)CCCCCN(Cc1cccc(F)n1)Cc1cn(S(=O)(=O)c2ccccc2)c2ccccc12 [Compound 90]
15.5 µM

Short answer please: IC50, UniProt P01375, entry CN1CCN(C(=O)NCCCCN(Cc2cccnc2F)Cc2cn(S(=O)(=O)c3ccccc3)c3ccccc23)CC1 [Compound 83]
21 µM

Short answer please: IC50, UniProt P01375, entry FC(F)(F)c1cccc(-n2cc(CN(CCCNC3CCCCC3)Cc3cccnc3)c3ccccc32)c1 [Compound 10]
23 µM

Short answer please: IC50, UniProt P01375, entry O=S(=O)(c1ccccc1)n1cc(CN(CCCCNC2CCCC2)Cc2cccnc2F)c2ccccc21 [Compound 71]
9.8 µM
